Item-by-item account of Distance between Cα carbons of Arg401 and Glu417
- Measurement description: NMR secondary structure
- Type: physicochemical
- Details: average of representative NMR conformers, SDS micelles
// note: answer is a bare numeric in Å

Field: example entries. Status: answers known.
1. RpSKDLRHAFRSMFPSSE [IL4pSer402]
23.61
2. RSKDLRHAFRSMFPSSE [IL4]
26
3. RSKDLRHAFRSMFPpSSE [IL4pSer415]
21.52

Summary for this substance, RSKDLRHAFRpSMFPSSE [IL4pSer411] : Distance between Cα carbons of Arg401 and Glu417 is 23.68
